- target_or_system: Nitric oxide synthase, inducible (Homo sapiens, UniProt P35228)
- Sequence (P35228 whole entry): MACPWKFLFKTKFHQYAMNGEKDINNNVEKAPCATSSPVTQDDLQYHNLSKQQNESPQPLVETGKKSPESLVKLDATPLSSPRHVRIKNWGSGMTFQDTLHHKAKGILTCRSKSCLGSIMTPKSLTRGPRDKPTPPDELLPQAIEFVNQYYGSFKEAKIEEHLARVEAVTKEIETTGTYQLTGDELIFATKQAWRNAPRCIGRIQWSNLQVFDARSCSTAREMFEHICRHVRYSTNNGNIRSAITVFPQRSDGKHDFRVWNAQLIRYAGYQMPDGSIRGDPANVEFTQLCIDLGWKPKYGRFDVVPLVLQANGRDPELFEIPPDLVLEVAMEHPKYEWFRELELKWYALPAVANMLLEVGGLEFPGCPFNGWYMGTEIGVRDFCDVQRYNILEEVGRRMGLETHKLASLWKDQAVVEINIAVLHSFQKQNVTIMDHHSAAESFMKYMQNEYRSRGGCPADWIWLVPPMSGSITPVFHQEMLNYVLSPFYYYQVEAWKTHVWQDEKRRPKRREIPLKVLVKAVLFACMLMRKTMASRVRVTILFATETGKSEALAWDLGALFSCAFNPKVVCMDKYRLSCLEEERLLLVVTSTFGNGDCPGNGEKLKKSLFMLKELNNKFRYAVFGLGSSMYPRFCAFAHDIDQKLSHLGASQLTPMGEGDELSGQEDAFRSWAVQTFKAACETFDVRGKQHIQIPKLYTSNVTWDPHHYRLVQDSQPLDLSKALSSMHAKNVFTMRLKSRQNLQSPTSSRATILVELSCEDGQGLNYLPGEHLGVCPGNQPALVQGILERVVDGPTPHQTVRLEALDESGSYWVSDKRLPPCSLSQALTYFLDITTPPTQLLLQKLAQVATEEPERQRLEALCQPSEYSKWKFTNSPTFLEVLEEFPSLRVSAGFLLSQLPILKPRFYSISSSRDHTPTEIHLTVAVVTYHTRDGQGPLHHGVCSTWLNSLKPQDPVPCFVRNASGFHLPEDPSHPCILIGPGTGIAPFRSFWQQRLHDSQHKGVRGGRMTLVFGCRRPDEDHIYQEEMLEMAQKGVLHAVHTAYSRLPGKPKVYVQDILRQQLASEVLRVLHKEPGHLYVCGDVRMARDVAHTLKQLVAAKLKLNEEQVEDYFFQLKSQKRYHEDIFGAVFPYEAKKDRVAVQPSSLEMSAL
- experimental_protocol: Inhibitory activity against Inducible nitric oxide synthase
Can you tell me IC50 for the items I'm about to list?
Respond with the bare value in nM.

Quickly give me recorded IC50 for `NC1=NCCC1`
4100

Quickly give me recorded IC50 for CCCCC1CSC(N)=N1 (stereo not given)
5200

Quickly give me recorded IC50 for CCC1CC(C)C(N)=N1 (stereo not given)
23000

Quickly give me recorded IC50 for CC1CN=C(N)C1C (stereo not given)
1200

Quickly give me recorded IC50 for CC(C)C1CN=C(N)C1 (stereo not given)
3500

Quickly give me recorded IC50 for CCC1CN=C(N)C1 (stereo not given)
500

Quickly give me recorded IC50 for `NC1=NCCS1`
900

Quickly give me recorded IC50 for CC1CC(N)=NC1C (stereo not given)
300

Quickly give me recorded IC50 for CCCC1N=C(N)CC1C (stereo not given)
2000

Quickly give me recorded IC50 for CC1CCN=C1N (stereo not given)
1500

Quickly give me recorded IC50 for CCC1N=C(N)CC1C (stereo not given)
20

Quickly give me recorded IC50 for CCC1CC(N)=NC1C (stereo not given)
160

---

Can you tell me pIC50 for the items I'm about to list?
Would you please state pIC50, meaning minus log10 of the concentration in mol/L, as a bare number?

Quote pIC50 with test system Nitric oxide synthase 1 (Homo sapiens, UniProt P29475) for CC1CN=C(N)C1 (stereo not given)
6.10

Quote pIC50 with test system Nitric oxide synthase 1 (Homo sapiens, UniProt P29475) for `NC1=NCCC1`
5.02

Quote pIC50 with test system Nitric oxide synthase 1 (Homo sapiens, UniProt P29475) for CC(C)C1CN=C(N)C1 (stereo not given)
4.97

Quote pIC50 with test system Nitric oxide synthase 1 (Homo sapiens, UniProt P29475) for CCCC1CC(N)=NC1C (stereo not given)
4.57

Quote pIC50 with test system Nitric oxide synthase 1 (Homo sapiens, UniProt P29475) for N=C1SCC2CCCN12 (stereo not given)
4.85

Quote pIC50 with test system Nitric oxide synthase 1 (Homo sapiens, UniProt P29475) for CCC1N=C(N)CC1C (stereo not given)
7.10

Quote pIC50 with test system Nitric oxide synthase 1 (Homo sapiens, UniProt P29475) for CC1CC(N)=NC1C (stereo not given)
6.89

Quote pIC50 with test system Nitric oxide synthase 1 (Homo sapiens, UniProt P29475) for CCC1CN=C(N)C1 (stereo not given)
5.59

---

Can you tell me IC50 for the items I'm about to list?

Quote IC50 with test system UniProt:P35228 for NC1=NC(c2ccccc2)CS1 (stereo not drawn)
> 50 µM

Quote IC50 with test system UniProt:P35228 for N=C1CCC2CCCN12 (stereo not drawn)
> 50 µM

Quote IC50 with test system UniProt:P35228 for NC1=NC2CCCC2C1 (stereo not drawn)
> 50 µM

Reference source for all entries: ChEMBL document CHEMBL1137191
